System: SK-MEL-5
Experiment: NCI tumour cell line growth inhibition, 48 h
The source made the active and inactive calls. No stated cut-off is given here; in the data, active = GI50 up to about 1.1 µM and inactive = higher.
Outcome codes: 1.0 = active, 0.0 = inactive

O=C(O)/C=C\C(=O)Nc1ccccn1
0.0
OC(CCN1CCN(CCOC(c2ccc(F)cc2)c2ccc(F)cc2)CC1)c1ccc(Br)cc1 (stereo not given)
0.0
COC(=O)c1c(O)ccc2c1c1cc3ccccc3cc1n2Cc1cc(OC)cc(OC)c1
0.0
CO[C@@]12C[C@@H](CNC(=O)c3cc(Br)c[nH]3)O[C@@H]1NC(=O)N2
0.0
CCOC(=O)C1=C(C)NC(=O)NC1c1ccc(OC)cc1OC (stereo not given)
0.0
NC(=O)NC(=O)c1cccc(NC(=O)CI)c1
1.0
CC(=O)Nc1ccc2c(C)c3c4ccccc4n(C)c3nc2n1
0.0
O=c1[nH]nc(Cc2ccccc2)n1/N=C/c1ccc(/C=N/n2c(Cc3ccccc3)n[nH]c2=O)cc1
0.0
[O-][S+](Nc1ccccc1)c1ccc(Cl)cc1 (stereo not given)
0.0
CCC12C=CCN3CC[C@]4(C(=C(C(=O)OC)[C@@H]1Nc1ccn(C5OC(COC(C)=O)C(OC(C)=O)C5OC(C)=O)c(=O)n1)Nc1ccccc14)C32 (stereo not given in full)
0.0
O=C1C(Cl)=C(N2CCN(c3ccccn3)CC2)C(=O)c2ncccc21
0.0
Cc1cc(Cl)cc2c1NC(=O)/C2=N\Nc1ccccc1[N+](=O)[O-]
0.0
COCC12CCC(OC)C34C5CC6(O)C(OC)CC(OC(C)=O)(C5C6OC(=O)c5ccccc5)C(C(OC)C13)C4N(C)C2 (stereo not given)
0.0
CCOC(=O)C(=CNC(=S)N/N=C1\C(=O)Nc2ccccc21)C(=O)OCC
0.0
CC[C@@H](C(=O)[C@@H](C)[C@@H](O)[C@H](C)CCc1ccc(C)c(O)c1C(=O)O)[C@H]1O[C@](CC)([C@H]2CC[C@](O)(CC)[C@H](C)O2)C[C@@H]1C [LASALOCID A SODIUM]
0.0
COC1(OC)CC2C=C(S(=O)(=O)c3ccccc3)C1N(Cc1ccccc1)C2=O (stereo not given)
0.0
O=C1CCCCCCCCCCC1CCCCCBr (stereo not given)
0.0
CCC1c2cc3n(c(=O)c2COC1O)Cc1c-3nc2ccccc2c1Cl (stereo not given)
0.0
CCOC(=O)C1=C(Nc2cccc3ccccc23)OCC1=O
0.0
CC(Br)C(=O)Nc1ccc(C(=O)O)c(O)c1 (stereo not given)
0.0

* * *

Test system: EKVX
Test: NCI tumour cell line growth inhibition, 48 h
The source made the active and inactive calls. Cut-off read from the data, not from the text of the source: active = GI50 up to about 1.1 µM and inactive = higher.
Outcome codes: true for active, false for inactive

COC(O)C(=O)c1c2c(cc3c1CCC3)CCC2 (stereo not given)
false
N=C(N)N/N=C/c1c[nH]c2ccccc12
false
O=S(=O)([C-]([I+]c1ccccc1)S(=O)(=O)C(F)(F)C(F)(F)C(F)(F)C(F)(F)F)C(F)(F)C(F)(F)C(F)(F)C(F)(F)F
false
NC(=O)NC(=O)c1cccc(NC(=O)CI)c1
true
COP(=O)(OC)OCN(C)CC/C=C(\C)CC/C=C(\C)CCC=C(C)C
false
COc1cc(/C=C2\CCC(C)C3C2=NN(C(C)=O)C3c2cc(OC)c(OC)c(OC)c2)cc(OC)c1OC (stereo not given)
false
O=[N+]([O-])C(/C=C(\Cl)n1nnc2ccccc21)=C(/Cl)n1nnc2ccccc21
false
O=c1oc2ccccc2cc1-c1cc2ccccn2c1
false
CCN(CC)Cc1cc(Nc2ccnc3ccc4c(nnn4C)c23)ccc1O
false
Cc1cc(Cl)nc2ccc(Cc3ccc4nc(Cl)cc(C)c4c3)cc12
false
